Counter-ions that a name gives are not always drawn.
readoutKind: melting point (°C)

compound	assayValue
COc1cc(OC)cc(N(CCCO)c2ccc3ncc(-c4cnn(C5CCCCO5)c4)nc3c2)c1 (centres unmarked)	168.25
COc1cc(F)cc(N(CCCO)c2ccc3ncc(-c4cnn(C)c4)nc3c2)c1	152

[P] C=Cc1cc(OC)cc(N(CC2CC2)c2ccc3ncc(-c4cnn(C)c4)nc3c2)c1
[Q] COc1cc(OC)cc(N(Cc2cc3ncccc3n2C)c2ccc3ncc(-c4cnn(C)c4)nc3c2)c1
INPUT: Quick check, higher melting point between P and Q ? Mark your selection by writing its label.
OUTPUT: Q
(Q: 241 °C, P: 146 °C)

[I] COC(=O)c1ccnc(C#CCN(c2cc(OC)cc(OC)c2)c2ccc3ncc(-c4cnn(C)c4)nc3c2)n1
[II] COCC(O)CN(c1cc(OC)cc(OC)c1)c1ccc2ncc(-c3cnn(C(C)C)c3)nc2c1 (centres unmarked) (as salt: hydrochloric acid salt)
INPUT: For I and II , which recorded melting point is lower? Lab log: write the label of the selected item as the result.
OUTPUT: II
(II: 110 °C, I: 178 °C)

[A] COc1cc(OC)cc(N(CC2CC2)c2ccc3ncc(-c4cnn(CCNS(C)(=O)=O)c4)nc3c2)c1
[B] COc1cc(OC)cc(N(CCN2CC[C@H](C#N)C2)c2ccc3ncc(-c4cnn(C)c4)nc3c2)c1
INPUT: Could you determine which record has the numerically smaller melting point? Candidates: A and B Returns: label corresponding to the selected item.
OUTPUT: B
